Assign IC50 to each entry below.
STUDY TARGET: Muscarinic acetylcholine receptor M1 (Rattus norvegicus)
ASSAY COMMENT: Binding activity against muscarinic acetylcholine receptor M1 in rat brain, using [3H]OXO-M as the radioligand.
Assay type: tissue-based
Give just the numeric value; µM need not be written.

q: Given Clc1nccnc1C1CN2CCC1CC2 (stereo not drawn) , report its IC50 on Muscarinic acetylcholine receptor M1 (Rattus norvegicus).
a: 0.056

q: Given CCOc1nccnc1C1CN2CCC1CC2 (stereo not drawn) , report its IC50 on Muscarinic acetylcholine receptor M1 (Rattus norvegicus).
a: 0.023

q: Given Cc1nccnc1C1CN2CCC1CC2 (stereo not drawn) , report its IC50 on Muscarinic acetylcholine receptor M1 (Rattus norvegicus).
a: 0.023

====

STUDY TARGET: Muscarinic acetylcholine receptor M1 (Rattus norvegicus, UniProt P08482)
Sequence (P08482 whole entry): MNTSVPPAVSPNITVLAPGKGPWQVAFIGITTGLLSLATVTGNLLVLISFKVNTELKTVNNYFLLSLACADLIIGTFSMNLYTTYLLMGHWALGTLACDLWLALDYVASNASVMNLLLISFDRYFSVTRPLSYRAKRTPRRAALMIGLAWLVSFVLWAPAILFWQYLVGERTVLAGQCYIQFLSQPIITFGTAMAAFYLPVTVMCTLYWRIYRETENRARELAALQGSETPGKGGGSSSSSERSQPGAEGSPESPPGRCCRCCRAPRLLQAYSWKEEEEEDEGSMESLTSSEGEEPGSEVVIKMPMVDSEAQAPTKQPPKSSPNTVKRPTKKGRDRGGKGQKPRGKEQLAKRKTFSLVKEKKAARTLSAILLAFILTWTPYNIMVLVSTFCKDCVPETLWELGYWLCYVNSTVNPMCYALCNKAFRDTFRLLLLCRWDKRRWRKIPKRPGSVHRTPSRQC
ASSAY COMMENT: Binding activity against muscarinic acetylcholine receptor M1 in rat brain, using [3H]-Pz as the radioligand.
Assay type: tissue-based
EXPERIMENTAL ENDPOINT: pIC50
Lab note: report pIC50 as minus log10 of the concentration in molar units, number only.

q: Look up and state reported pIC50 for CCCCCCOc1nccnc1[C@H]1CN2CCCC1C2 (some centres undefined)
a: 8.60

q: Look up and state reported pIC50 for CCCCCCOc1nccnc1[C@@H]1CN2CCCC1C2 (some centres undefined)
a: 6.92

q: Look up and state reported pIC50 for Cc1nccnc1C1CN2CCC1CC2 (centres undefined)
a: 7.10

q: Look up and state reported pIC50 for c1cnc(C2CN3CCC2CC3)cn1 (centres undefined)
a: 7.13

q: Look up and state reported pIC50 for Clc1nccnc1C1CN2CCC1CC2 (centres undefined)
a: 6.74

q: Look up and state reported pIC50 for CCCCOc1nccnc1C1CN2CCC1CC2 (centres undefined)
a: 8.00

q: Look up and state reported pIC50 for CCCCCCOc1nccnc1[C@H]1CN2CCC1CC2
a: 7.97

q: Look up and state reported pIC50 for CCCCCCOc1nccnc1[C@@H]1CN2CCC1CC2
a: 8.43

q: Look up and state reported pIC50 for CCOc1nccnc1C1CN2CCC1CC2 (centres undefined)
a: 7.42

Data provenance is ChEMBL document CHEMBL1128691.
